Please respond with reported interaction score for every item in the list.
- STUDY SYSTEM: T1, APC542-AA
- T1 chain: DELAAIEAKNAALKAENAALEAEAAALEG
- ASSAY DETAILS: two-hybrid library CCmax;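 also: natural log of median RNA to DNA barcode read ratio; higher means stronger binding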
- CONDITION LABEL: mean of both orientations
Lab note: record the figure alone, no unit after it.

Look up interaction score: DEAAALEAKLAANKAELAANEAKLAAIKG [APC2981-AA]
-1.62

Look up interaction score: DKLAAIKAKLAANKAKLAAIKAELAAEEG [APC1916-AA]
-1.62

Look up interaction score: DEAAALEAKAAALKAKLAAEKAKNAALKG [APC2375-AA]
-1.83

Look up interaction score: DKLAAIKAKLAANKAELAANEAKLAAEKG [APC1987-AA]
-1.67
